Biological target: 4-hydroxybenzoate-3-monooxygenase (PHBH) (Pseudomonas fluorescens)
Sequence (P00438 whole entry): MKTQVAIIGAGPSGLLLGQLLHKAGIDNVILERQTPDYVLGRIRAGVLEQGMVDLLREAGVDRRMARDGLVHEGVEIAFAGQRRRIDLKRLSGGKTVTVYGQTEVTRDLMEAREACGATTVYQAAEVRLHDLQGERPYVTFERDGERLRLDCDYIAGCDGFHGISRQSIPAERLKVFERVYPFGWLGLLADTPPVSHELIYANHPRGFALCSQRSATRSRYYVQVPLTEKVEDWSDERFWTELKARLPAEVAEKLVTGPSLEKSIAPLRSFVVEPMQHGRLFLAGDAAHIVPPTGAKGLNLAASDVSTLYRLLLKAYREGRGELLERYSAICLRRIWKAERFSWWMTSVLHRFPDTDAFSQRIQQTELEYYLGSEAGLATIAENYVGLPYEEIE
Assay: PHBH NADPH consumption assay
Assay type: biochemical
Conditions: dark; compounds 1 and 2 up to 2.5 mM

>  <COMPOUND>
CC1(NCc2ccccc2)CC1

>  <SUBJECT_OF_TEST>
4-hydroxybenzoate-3-monooxygenase (PHBH) (Pseudomonas fluorescens)

>  <Inhibition of PHBH>
no inhibition

$$$$
>  <COMPOUND>
C#CCNCc1ccc2c(C)c3c(c(O)c2c1O)C(=O)[C@]1(O)C(=O)C(C(N)=O)=C(O)[C@@H](N(C)C)[C@@H]1C3.Cl

>  <SUBJECT_OF_TEST>
4-hydroxybenzoate-3-monooxygenase (PHBH) (Pseudomonas fluorescens)

>  <Inhibition of PHBH>
Inhibition was detected

$$$$
>  <COMPOUND>
C#CCN(C)Cc1ccccc1

>  <SUBJECT_OF_TEST>
4-hydroxybenzoate-3-monooxygenase (PHBH) (Pseudomonas fluorescens)

>  <Inhibition of PHBH>
no inhibition

$$$$
>  <COMPOUND>
Cc1c2c(c(O)c3c(O)c(CNC4(C)CC4)ccc13)C(=O)[C@]1(O)C(=O)C(C(N)=O)=C(O)[C@@H](N(C)C)[C@@H]1C2.Cl

>  <SUBJECT_OF_TEST>
4-hydroxybenzoate-3-monooxygenase (PHBH) (Pseudomonas fluorescens)

>  <Inhibition of PHBH>
Inhibition was detected

$$$$
>  <COMPOUND>
Cc1c2c(c(O)c3c(O)cccc13)C(=O)[C@]1(O)C(=O)C(C(N)=O)=C(O)[C@@H](N(C)C)[C@@H]1C2 [aTC, anhydrotetracycline]

>  <SUBJECT_OF_TEST>
4-hydroxybenzoate-3-monooxygenase (PHBH) (Pseudomonas fluorescens)

>  <Inhibition of PHBH>
Inhibition was detected

$$$$
